Consider the following compounds and their measured EC50 readings.
- TESTED_ON: human apelin receptor (APJ, APLNR) (Homo sapiens)
- Construct: host or cells: Chinese hamster ovary (CHO) cells, stably integrated receptor
- Sequence (P35414 1-380): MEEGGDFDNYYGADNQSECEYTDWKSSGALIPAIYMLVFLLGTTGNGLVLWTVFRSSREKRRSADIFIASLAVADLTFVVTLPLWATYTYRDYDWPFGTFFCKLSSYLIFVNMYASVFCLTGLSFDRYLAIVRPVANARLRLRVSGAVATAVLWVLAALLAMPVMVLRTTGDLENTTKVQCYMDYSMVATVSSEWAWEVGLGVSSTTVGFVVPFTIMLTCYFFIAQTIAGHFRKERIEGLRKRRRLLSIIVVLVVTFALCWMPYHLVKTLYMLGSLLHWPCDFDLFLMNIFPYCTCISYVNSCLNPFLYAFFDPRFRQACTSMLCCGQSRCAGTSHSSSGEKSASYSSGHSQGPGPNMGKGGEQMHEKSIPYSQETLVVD
- PROTOCOL_SUMMARY: cell-based cAMP assay (TR-FRET) in Chinese hamster ovary cells expressing the apelin receptor
- TEST_PARAMETERS: EC50 = 50% of control (apelin-13, 1 nM) response; cAMP in CHO cells, 0.5 h incubation; read-out: Potency Category

// worked examples, EC50 included
COCc1cccc(C)c1-c1c(C)nn2c(C(C)C)cc(C(=O)O)nc12 [Compound 131] ... < 100 nM
COc1cccc(Cl)c1-c1c(C)nn2c(C(C)C)cc(C(=O)O)nc12 [Compound 119] ... > 500 nM
COc1cccc(C)c1-c1c(C)nn2c(C(C)C)cc(C(=O)O)nc12 [Compound 76] ... > 500 nM
Cc1cccc(C)c1-c1c(C)nn2c(N(C)C)cc(C(=O)O)nc12 [Compound 103] ... > 500 nM
Cc1cccc(C)c1-c1c(C)nn2c(-c3ccncc3)cc(C(=O)O)nc12 [Compound 126] ... > 500 nM
CCOC(=O)c1cccc(C)c1-c1c(C)nn2c(C(C)C)cc(C(=O)O)nc12 [Compound 77] ... 100 to 200 nM
Cc1cccc(Br)c1-c1c(C)nn2c(C(C)C)cc(C(=O)O)nc12 [Compound 130] ... 200 to 500 nM
Cc1nn2c(C(C)C)cc(C(=O)O)nc2c1-c1cccc(Cl)c1 [Compound 32] ... > 500 nM

For the next question, use this compound.
Entry Cc1nn2c(C(C)C)cc(C(=O)O)nc2c1-c1c(F)cccc1Cl [Compound 113] ; assay system human apelin receptor (APJ, APLNR) (Homo sapiens); EC50 recorded at > 500 nM

###

- TESTED_ON: human apelin receptor (APJ, APLNR) (Homo sapiens)
- PROTOCOL_SUMMARY: cell-based cAMP assay (TR-FRET) in Chinese hamster ovary cells expressing the apelin receptor
- TEST_PARAMETERS: EC50 = 50% of control (apelin-13, 1 nM) response; cAMP in CHO cells, 0.5 h incubation; read-out: Potency Category
# EC50 per entry

Below, 8 molecules whose answers are already recorded.
CCc1nn2c(C(C)C)cc(C(=O)O)nc2c1-c1ccccc1 [Compound 13] ... > 500 nM
COC(=O)c1cc(N2CCCCC2)n2nc(C)c(-c3c(C)cccc3C)c2n1 [Compound 124] ... > 500 nM
COC(=O)c1cc(Cl)n2nc(C)c(-c3c(C)cccc3C)c2n1 [Compound 159] ... > 500 nM
CC(C)c1cc(C(=O)O)nc2c3c(nn12)CCCC3 [Compound 43] ... > 500 nM
CCc1cccc(CC)c1-c1c(C)nn2c(C(C)C)cc(C(=O)O)nc12 [Compound 116] ... 200 to 500 nM
Cc1cccc(C)c1-c1c(C)nn2c(Nc3ccc(C(F)(F)F)cc3)cc(C(=O)O)nc12 [Compound 143] ... > 500 nM
CCOC(=O)c1cc(C(C)C)n2nc(-c3ccccc3)c(-c3c(C)cccc3C)c2n1 [Compound 78] ... > 500 nM
Cc1cccc(C)c1-c1c(C)nn2c(Nc3ccc(OC(F)(F)F)cc3)cc(C(=O)O)nc12 [Compound 144] ... > 500 nM

# next molecule below
// EC50 (human apelin receptor (APJ, APLNR) (Homo sapiens)) for Cc1cccc(C)c1-c1c(C)nn2c(C(C)C)cc(C(=O)O)nc12 [Compound 41] = < 100 nM
